# credit: patent US20240352133A1

Entries and their pKd
# test target: Recombinant human his-tagged IGF 1R extracellular domain protein (human) (UniProt P08069)
# protocol description: SPR, captured antibody, pH 7.4
pKd: −log10 of the molar value.

{"columns": ["binder", "pKd"],
 "data": [
  ["VRDN-03047 (antibody, V domains shown) VH: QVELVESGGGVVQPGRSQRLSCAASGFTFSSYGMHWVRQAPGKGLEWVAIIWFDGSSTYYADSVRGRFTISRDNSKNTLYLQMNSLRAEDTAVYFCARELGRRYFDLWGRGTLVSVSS VL: EIVLTQSPATLSLSPGERATLSCRASQSVSSYHAWYQQKPGQAPRLLIYDASKRATGIPARFSGSGSGTDFTLTISSLEPEDFAVYYCQQRSKWPPWTFGQGTKVESK", 8.53],
  ["VRDN-03053 (antibody, V domains shown) VH: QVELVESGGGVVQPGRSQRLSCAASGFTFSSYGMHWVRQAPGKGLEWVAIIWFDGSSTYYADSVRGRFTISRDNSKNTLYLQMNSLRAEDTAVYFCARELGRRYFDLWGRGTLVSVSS VL: EIVLTQSPATLSLSPGERATLSCRASQSVSSYLAWYQQKPGQAPRLLIYDASKHATGIPARFSGSGSGTDFTLTISSLEPEDFAVYYCQQRSKWPPWTFGQGTKVESK", 8.75],
  ["VRDN-03116 (antibody, V domains shown) VH: EVQLVESGGGVVQPGRSLRLSCAASGFTFSDYTMHWVRQAPGKGLEWVAIIWFDGSSKYYPGSVKGRFTISRDNSKNTLYLQMNSLRAEDTAVYYCARELGRRYFDIWGRGTLVTVSS VL: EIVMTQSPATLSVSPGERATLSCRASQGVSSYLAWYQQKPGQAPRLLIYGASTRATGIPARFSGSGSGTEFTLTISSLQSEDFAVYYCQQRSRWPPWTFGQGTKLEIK", 8.37],
  ["VRDN-03128 (antibody, V domains shown) VH: EVQLVESGGGVVQPGRSLRLSCAASGFTFSDYTMHWVRQAPGKGLEWVAIIWFDGSSKYYPGSVKGRFTISRDNSKNTLYLQMNSLRAEDTAVYYCARELGRRYFDIWGRGTLVTVSS VL: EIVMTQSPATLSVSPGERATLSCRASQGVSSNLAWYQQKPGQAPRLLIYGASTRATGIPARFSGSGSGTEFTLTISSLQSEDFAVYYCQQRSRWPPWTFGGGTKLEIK", 8.14],
  ["VRDN-03105 (antibody, V domains shown) VH: QVQLVESGGGVVQPGRSLRLSCAASGFTFSDHYMDWVRQAPGKGLEWVAIIWFDGSSKYYVDSVKGRFTISRDNSKNTLYLQMNSLRAEDTAVYYCARELGRRYFDIWGRGTLVTVSS VL: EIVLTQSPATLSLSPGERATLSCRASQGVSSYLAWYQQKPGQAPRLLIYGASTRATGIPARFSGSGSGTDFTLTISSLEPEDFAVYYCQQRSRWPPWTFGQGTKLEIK", 9.05]
]}
